tested-target: Drosophila OR98a (Drosophila melanogaster, UniProt Q9VAZ3)
Construct: expressed in transfected cells
Sequence (Q9VAZ3 1-397): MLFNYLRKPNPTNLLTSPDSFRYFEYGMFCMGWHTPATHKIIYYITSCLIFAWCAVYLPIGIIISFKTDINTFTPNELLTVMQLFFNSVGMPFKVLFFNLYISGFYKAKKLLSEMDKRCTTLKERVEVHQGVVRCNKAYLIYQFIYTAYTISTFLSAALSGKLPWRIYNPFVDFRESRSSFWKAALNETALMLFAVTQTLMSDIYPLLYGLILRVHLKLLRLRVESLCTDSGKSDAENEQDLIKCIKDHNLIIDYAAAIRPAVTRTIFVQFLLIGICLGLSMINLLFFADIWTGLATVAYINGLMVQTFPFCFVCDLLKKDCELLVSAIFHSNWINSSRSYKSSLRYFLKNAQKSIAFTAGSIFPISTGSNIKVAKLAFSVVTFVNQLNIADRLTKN
Sequence (Q9VNB5 1-486 partner): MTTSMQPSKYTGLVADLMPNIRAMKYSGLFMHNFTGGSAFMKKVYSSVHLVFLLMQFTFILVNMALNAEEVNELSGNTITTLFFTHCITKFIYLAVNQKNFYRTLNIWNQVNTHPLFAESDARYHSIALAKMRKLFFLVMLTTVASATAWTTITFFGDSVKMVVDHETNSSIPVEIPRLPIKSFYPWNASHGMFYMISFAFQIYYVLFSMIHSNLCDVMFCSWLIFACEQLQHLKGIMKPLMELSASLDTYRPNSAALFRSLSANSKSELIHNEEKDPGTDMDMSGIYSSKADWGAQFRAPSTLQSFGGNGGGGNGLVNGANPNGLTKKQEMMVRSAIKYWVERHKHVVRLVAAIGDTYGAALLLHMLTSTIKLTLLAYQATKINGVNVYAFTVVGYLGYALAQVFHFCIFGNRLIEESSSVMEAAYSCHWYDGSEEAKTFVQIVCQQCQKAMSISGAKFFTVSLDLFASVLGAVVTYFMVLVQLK
test: Calcium ion fluorescence (GCaMP6) assay, OR98a stable HEK293 cell line;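 further: ligand concentrations in µM final VOC concentration in well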
Assay type: cell-based
conditions: HEK293, read-out: Average response
# activation at 1 µM listing for each entry below
Write the answer as a number in %, unit excluded.

Use these answered entries as a reference point.
- compound: "CCCOC(C)=O [propyl acetate]"
  measurement-unit: "%"
  activation at 1 µM: 10
- compound: "C=CC(O)C/C=C\\CC (centres unmarked)"
  measurement-unit: "%"
  activation at 1 µM: 0

The recorded activation at 1 µM with Drosophila OR98a (Drosophila melanogaster, UniProt Q9VAZ3) for Cc1cccc(C)c1 was 0

The recorded activation at 1 µM with Drosophila OR98a (Drosophila melanogaster, UniProt Q9VAZ3) for C=CCc1ccc(O)c(OC)c1 was 3.37

The recorded activation at 1 µM with Drosophila OR98a (Drosophila melanogaster, UniProt Q9VAZ3) for CCCCCCCCCCCCCC was 0

The recorded activation at 1 µM with Drosophila OR98a (Drosophila melanogaster, UniProt Q9VAZ3) for CCCCC(C)O (centres unmarked) was 0

The recorded activation at 1 µM with Drosophila OR98a (Drosophila melanogaster, UniProt Q9VAZ3) for CC1=CCC2CC1C2(C)C (centres unmarked) was 0

The recorded activation at 1 µM with Drosophila OR98a (Drosophila melanogaster, UniProt Q9VAZ3) for CC(=O)c1ccccc1 was 4

The recorded activation at 1 µM with Drosophila OR98a (Drosophila melanogaster, UniProt Q9VAZ3) for CCOC(=O)c1ccccc1 [ethyl benzoate] was 3

The recorded activation at 1 µM with Drosophila OR98a (Drosophila melanogaster, UniProt Q9VAZ3) for CCc1ccccc1 was 0

The recorded activation at 1 µM with Drosophila OR98a (Drosophila melanogaster, UniProt Q9VAZ3) for O=Cc1ccccc1 was 0

###

# DF norm AVERAGE OR49b listing for each entry below
tested-target: Drosophila OR49b (Drosophila melanogaster)
Construct: expressed in transfected cells
Sequence (Q9V6H2 whole entry, one chain of several): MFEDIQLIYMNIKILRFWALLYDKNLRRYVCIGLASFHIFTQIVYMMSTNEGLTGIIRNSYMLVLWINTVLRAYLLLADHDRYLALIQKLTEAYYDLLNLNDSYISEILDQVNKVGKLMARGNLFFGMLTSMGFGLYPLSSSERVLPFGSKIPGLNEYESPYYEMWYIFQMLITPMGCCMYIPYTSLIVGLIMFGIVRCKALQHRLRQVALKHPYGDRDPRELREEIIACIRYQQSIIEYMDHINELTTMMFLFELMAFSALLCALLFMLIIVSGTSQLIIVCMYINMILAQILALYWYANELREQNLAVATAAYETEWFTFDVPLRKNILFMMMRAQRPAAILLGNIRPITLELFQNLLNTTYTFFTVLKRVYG
test: cell-based
conditions: ligand concentration 1 (unit not given); threshold 0.05, below shown as 0
Give the value as a plain number.

Use these answered entries as a reference point.
- molecule: "C=C1CCC2(C(C)C)CC12 (stereo not drawn) [sabinene]"
  DF norm AVERAGE OR49b: 0
- molecule: "CCOC(=O)CC [ethyl propionate]"
  DF norm AVERAGE OR49b: 0

Now for another entry.
Data point: CCCCCCCCCC=O [decanal] ; DF norm AVERAGE OR49b = 0

###

# DF norm AVERAGE OR13a listing for each entry below
tested-target: Drosophila OR13a (Drosophila melanogaster, UniProt Q9VXL0)
Construct: expressed in transfected cells
Sequence (Q9VXL0 whole entry, one chain of several): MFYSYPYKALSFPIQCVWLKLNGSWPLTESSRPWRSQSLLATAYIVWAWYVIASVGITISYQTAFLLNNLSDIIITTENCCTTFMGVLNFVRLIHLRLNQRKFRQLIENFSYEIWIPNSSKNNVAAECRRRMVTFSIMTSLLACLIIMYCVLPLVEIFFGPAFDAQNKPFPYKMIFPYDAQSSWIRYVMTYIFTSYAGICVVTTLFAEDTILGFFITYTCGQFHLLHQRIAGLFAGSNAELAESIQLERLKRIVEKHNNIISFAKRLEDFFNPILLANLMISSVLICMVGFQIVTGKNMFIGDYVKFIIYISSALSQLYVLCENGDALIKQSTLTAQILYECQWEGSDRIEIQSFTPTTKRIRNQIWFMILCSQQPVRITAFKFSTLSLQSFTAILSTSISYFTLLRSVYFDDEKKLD
test: Calcium ion fluorescence (GCaMP6) assay, OR13a stable HEK293 cell line
Assay type: cell-based
conditions: ligand concentration 1 (unit not given); threshold 0.05, below shown as 0
Give the value as a plain number.

- compound: "CCCCOC(C)=O [butyl acetate]"
  DF norm AVERAGE OR13a: 0
- compound: "CC/C=C/CCO [e3-hexenol]"
  DF norm AVERAGE OR13a: 0
- compound: "C=C(C)[C@H]1CC=C(C)CC1 [limonene]"
  DF norm AVERAGE OR13a: 0

Data point: C=C1CCC2CC1C2(C)C (stereo not drawn) [beta-pinene] ; DF norm AVERAGE OR13a = 0.08064

Data point: CCCCCOC(C)=O [pentyl acetate] ; DF norm AVERAGE OR13a = 0

Data point: CC(=O)OCC(C)C [isobutyl acetate] ; DF norm AVERAGE OR13a = 0

Data point: CCOC(=O)c1ccccc1 [ethyl benzoate] ; DF norm AVERAGE OR13a = 0

Data point: CCc1ccccc1 [ethylbenzene] ; DF norm AVERAGE OR13a = 0

###

# Average response listing for each entry below
tested-target: Drosophila OR71a (Drosophila melanogaster)
Construct: expressed in transfected cells
test: Calcium ion fluorescence (GCaMP6) assay, OR71a stable HEK293 cell line
Format: cell-based
conditions: OR71a cell line; cc. 10 µM; VUAA1-normalized response, mean of biological replicates
Give the value as a plain number.

Use these answered entries as a reference point.
- compound: "CCCOC(C)=O [propyl acetate]"
  Average response: 0.025
- compound: "Cc1ccc(C)c(C)c1"
  Average response: 0.00
- compound: "CCCCCOC(C)=O [pentyl acetate]"
  Average response: 0.0163
- compound: "Cc1ccccc1C"
  Average response: 0.00
- compound: "CC(=O)c1ccccc1"
  Average response: 0.00
- compound: "CCCCOC(C)=O [butyl acetate]"
  Average response: 0.00

Data point: CCCCC(C)O (centres unmarked) ; Average response = 0.00

Data point: CCCCCC(O)CC (centres unmarked) ; Average response = 0.00

Data point: Cc1ccc(C)cc1 ; Average response = 0.06

Data point: C=Cc1ccccc1 ; Average response = 0.0458

Data point: CCCCCCCCCCC ; Average response = 0.00

Data point: CCCCCC(C)=O ; Average response = 0.12

Data point: CCOC(=O)CC [ethyl propionate] ; Average response = 0.00

Data point: CCCCCCCCC=O ; Average response = 0.00

###

tested-target: Drosophila OR47a (Drosophila melanogaster)
Construct: expressed in transfected cells
Sequence (P81921 whole entry, one chain of several): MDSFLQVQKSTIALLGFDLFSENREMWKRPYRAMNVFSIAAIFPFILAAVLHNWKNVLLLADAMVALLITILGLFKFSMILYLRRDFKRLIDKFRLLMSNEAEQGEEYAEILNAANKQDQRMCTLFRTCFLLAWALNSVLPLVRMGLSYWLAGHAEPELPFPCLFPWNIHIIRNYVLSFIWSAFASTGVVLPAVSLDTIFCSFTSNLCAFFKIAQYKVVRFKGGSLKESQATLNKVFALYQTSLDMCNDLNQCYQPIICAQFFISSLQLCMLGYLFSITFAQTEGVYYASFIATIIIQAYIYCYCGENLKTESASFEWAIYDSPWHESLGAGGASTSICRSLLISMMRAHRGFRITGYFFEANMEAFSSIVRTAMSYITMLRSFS
test: Calcium ion fluorescence (GCaMP6) assay, OR47a stable HEK293 cell line
Type: cell-based
conditions: ligand concentration 100 (unit not given); threshold 0.05, below shown as 0
Procedure: These VUAA1 normalized ∆F values were used to compare the different receptors and ligands. The concentration-dependent effect of the reference ligands on their cognate cell lines was examined in more detail. Twelve different ligand concentrations were measured on each cell line in an overall 0.01 μM to 100 μM concentration range with 5 repetitions with three technical replicates each time. […]
# DF norm AVERAGE OR47a listing for each entry below
Give the value as a plain number.

Data point: CCCCCOC(C)=O [pentyl acetate] ; DF norm AVERAGE OR47a = 0.7595

Data point: C=C(C)[C@H]1CC=C(C)CC1 [limonene] ; DF norm AVERAGE OR47a = 0

Data point: OCCc1ccccc1 [phenethyl alcohol] ; DF norm AVERAGE OR47a = 0.05701

Data point: Cc1cccc(C)c1 [m-xylene] ; DF norm AVERAGE OR47a = 0

###

tested-target: Drosophila OR71a (Drosophila melanogaster, UniProt Q9VUK5)
Construct: expressed in transfected cells
Sequence (Q9VUK5 whole entry, one chain of several): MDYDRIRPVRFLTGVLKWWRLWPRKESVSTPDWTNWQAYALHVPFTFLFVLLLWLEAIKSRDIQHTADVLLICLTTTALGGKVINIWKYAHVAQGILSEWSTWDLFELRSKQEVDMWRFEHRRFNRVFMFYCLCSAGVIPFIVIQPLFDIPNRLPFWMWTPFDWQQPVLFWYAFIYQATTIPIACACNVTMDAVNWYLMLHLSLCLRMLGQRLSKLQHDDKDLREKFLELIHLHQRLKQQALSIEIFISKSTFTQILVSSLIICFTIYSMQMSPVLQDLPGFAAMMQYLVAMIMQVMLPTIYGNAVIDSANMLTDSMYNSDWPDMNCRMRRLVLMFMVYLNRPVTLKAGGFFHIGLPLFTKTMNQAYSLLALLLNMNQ
test: Calcium ion fluorescence (GCaMP6) assay, OR71a stable HEK293 cell line
Assay type: cell-based
conditions: OR71a cell line; cc. 1 µM; VUAA1-normalized response, mean of biological replicates
test-readout: Average response

- compound: "CCCOC(C)=O [propyl acetate]"
  Average response: 0.0434
- compound: "CC(=O)OCCC(C)C [isopentyl acetate]"
  Average response: 0.0333
- compound: "Cc1ccc(C)c(C)c1 [1,2,4-trimethylbenzene]"
  Average response: 0.00
- compound: "CCOC(=O)CC [ethyl propionate]"
  Average response: 0.0185

Data point: CC(=O)c1ccccc1 [acetophenone] ; Average response = 0.00

Data point: CCCCCC(O)CC (centres unmarked) [3-octanol] ; Average response = 0.0215

Data point: C=C(C)C1CCC2(C)OC2C1 (single isomer, unassigned; (+)) [(+)-limonene oxide] ; Average response = 0.0247

Data point: CCCCC(C)O (centres unmarked) [2-hexanol] ; Average response = 0.00

Data point: O=Cc1ccccc1 [benzaldehyde] ; Average response = 0.03

Data point: C=C1CC[C@H]2O[C@]2(C)CC[C@@H]2[C@@H]1CC2(C)C [(-)-caryophyllene oxide] ; Average response = 0.00

Data point: CCCCCC(=O)CC [3-octanone] ; Average response = 0.00

Data point: CCCC(=O)OCC [ethyl butyrate] ; Average response = 0.00

Data point: CC(=O)OCC(C)C [isobutyl acetate] ; Average response = 0.038

Data point: C=CC(C)(O)CCC=C(C)C (centres unmarked) [linalool] ; Average response = 0.00

Data point: Cc1cccc(C)c1 [m-xylene] ; Average response = 0.00

Data point: Cc1ccccc1C [o-xylene] ; Average response = 0.00

Data point: C=CC(O)CCCCC (centres unmarked) [1-octen-3-ol] ; Average response = 0.00
